Hey, just so you know, these numbers are from the supplement of paper PMC8728848.

Listing of entries alongside the reported glycan array binding signal (z-score).
Measured Target: Neu5Ac(a2-3)Gal(b1-4)GlcNAc(b1-3)Gal
Experiment Notes: glycan array binding signal (z-score within array); higher = stronger binding
Condition Parameters: glycan notation: IUPAC condensed, linker removed
The full list was thinned out, with the strongest signals kept by preference.

[
  {
    "Binder": "BC2L-A (Burkholderia cenocepacia), Q1BKJ8_BURCA (protein) ADSQTSSNRAGEFSIPPNTDFRAIFFANAAEQQHIKLFIGDSQEPAAYHKLTTRDGPREATLNSGNGKIRFEVSVNGKPSATDARLAPINGKKSDGSPFTVNFGIVVSEDGHDSDYNDGIVVLQWPIG",
    "glycan array binding signal (z-score)": -0.214
  },
  {
    "Binder": "FimA-N1 (Actinomyces oris) (protein) MHHHHHHSSGVDLGTENLYFQSNATETPNYGNIKTDATGSLVIHKHLTGGGKDIGTPTGTAQNADDKGPAVEGVVFTAYPITDINLKDPAGWDTISNLSRTGVPDSACANPAAPTLGAHQFGTPKVSPATTKEGLATITEMPVQAYLVCETTTPGDIVQKAKPFVVTIPHPNTAAGADGQWIYDVNVYPKNEAIDVDKTIQAQK",
    "glycan array binding signal (z-score)": -0.466
  },
  {
    "Binder": "Epa1 (Candida glabrata) (protein) MGSSHHHHHHSSGLVPRGSHMTSSNDISLASKDPTTFPLGCSPDITTPKKGLSMELYSYDFRKKGSYPCWDAAYLDPNYPRTGYKSHRLLAKVDGVTGNINFYYHATKGCTPQLGHLPASYNYPKPLTMTNFTMLLYGYFRPKVTGFHTFTISADDLLFVNFGAGNAFDCCRRDSSADHFGNYQAYAIWGSKTAKDELTVHLDAGVYYPIRLFYNNREYDGALSFTFKTESNENTVSDFSEYFFSLDDTEEGCPGLISYD",
    "glycan array binding signal (z-score)": -0.288
  },
  {
    "Binder": "Epa11 (Candida glabrata) (protein) MGSSHHHHHHSSGLVPRGSHMASSNAPNYPVGCSPSVGTQLTPGLSLEVYAYPMDGNNGYCWNATYKDPEFPRSGYLKNKLLGKADGVVGPLNFLAKNKDCSPKVDTLPAGFNFPQPITVTNFTMVLFGYLAPKQSGKYTFKLLADDLLLLNLGATNAFDCCNREATKNNLGEFLAYNLWPNQDKNVTVYLEKGVYYPLRLFFNNRDGGSQLDFSYYFNDSPAPLTDFSGMFFSVPDGAECPARI",
    "glycan array binding signal (z-score)": -0.477
  }
]
